target.entity: JAK1 (Homo sapiens, UniProt P23458)
Construct: purchased Invitrogen
Sequence (P23458 whole entry): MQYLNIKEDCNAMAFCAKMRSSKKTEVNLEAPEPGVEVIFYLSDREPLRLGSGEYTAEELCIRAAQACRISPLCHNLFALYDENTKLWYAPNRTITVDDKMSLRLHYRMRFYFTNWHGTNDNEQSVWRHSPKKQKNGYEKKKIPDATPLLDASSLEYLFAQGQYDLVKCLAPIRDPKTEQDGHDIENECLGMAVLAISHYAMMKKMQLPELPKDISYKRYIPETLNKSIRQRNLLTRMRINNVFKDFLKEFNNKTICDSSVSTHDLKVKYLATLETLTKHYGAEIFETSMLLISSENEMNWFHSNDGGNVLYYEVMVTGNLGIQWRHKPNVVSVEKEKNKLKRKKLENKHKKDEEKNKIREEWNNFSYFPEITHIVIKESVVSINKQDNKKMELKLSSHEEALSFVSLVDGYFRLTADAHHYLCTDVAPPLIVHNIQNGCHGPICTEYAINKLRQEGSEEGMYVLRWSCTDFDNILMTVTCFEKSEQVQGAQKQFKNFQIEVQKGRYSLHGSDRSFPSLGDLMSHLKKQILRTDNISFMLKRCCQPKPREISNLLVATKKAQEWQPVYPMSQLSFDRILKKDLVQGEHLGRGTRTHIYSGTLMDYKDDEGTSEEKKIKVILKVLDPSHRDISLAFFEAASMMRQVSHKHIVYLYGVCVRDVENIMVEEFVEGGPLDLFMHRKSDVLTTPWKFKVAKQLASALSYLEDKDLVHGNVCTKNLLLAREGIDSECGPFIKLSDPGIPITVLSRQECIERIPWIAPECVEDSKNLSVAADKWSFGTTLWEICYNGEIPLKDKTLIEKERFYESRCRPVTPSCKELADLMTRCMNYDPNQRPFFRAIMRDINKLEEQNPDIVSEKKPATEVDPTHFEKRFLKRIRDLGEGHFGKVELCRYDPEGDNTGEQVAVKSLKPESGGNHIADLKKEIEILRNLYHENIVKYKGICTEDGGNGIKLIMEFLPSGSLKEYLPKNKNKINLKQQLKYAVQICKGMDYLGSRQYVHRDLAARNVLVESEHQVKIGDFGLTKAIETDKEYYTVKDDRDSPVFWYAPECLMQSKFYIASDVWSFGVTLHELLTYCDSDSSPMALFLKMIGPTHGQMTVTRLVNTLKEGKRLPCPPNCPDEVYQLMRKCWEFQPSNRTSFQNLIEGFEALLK
method.description: JAK1 enzyme inhibition test (LANCE method)
Type: biochemical
measurement.setup: 1 μM test compound; read-out: JAK1 enzyme inhibitory activity (%, 1 μM)
parameter.measured: inhibition at 1 µM

[
  {
    "compound": "CN(c1cc(-c2cn(-c3c(F)cccc3C#N)c(=O)c3c(N)n[nH]c23)nn1C)C1CCCC1 [Example 123]",
    "inhibition at 1 µM": "97%"
  }
]

Noted for CNC(=O)c1cc(-c2cn(-c3c(F)cccc3F)c(=O)c3c(N)n[nH]c23)nn1C [Example 65] : its inhibition at 1 µM reads 99%

Noted for CC(C)[C@H](C)n1cc(-c2cc(N3CCN4CCCC4C3)n(C)n2)c2[nH]nc(N)c2c1=O (stereo partly shown) [Example 32] : its inhibition at 1 µM reads 96%

Noted for CC(C)[C@H](C)n1cc(-c2cc(N3CC4(COC4)C3)n(C)n2)c2[nH]nc(N)c2c1=O [Example 105] : its inhibition at 1 µM reads 97%

* * *

target.entity: TYK2 (Homo sapiens)
Construct: purchased Invitrogen
Sequence (P29597 whole entry): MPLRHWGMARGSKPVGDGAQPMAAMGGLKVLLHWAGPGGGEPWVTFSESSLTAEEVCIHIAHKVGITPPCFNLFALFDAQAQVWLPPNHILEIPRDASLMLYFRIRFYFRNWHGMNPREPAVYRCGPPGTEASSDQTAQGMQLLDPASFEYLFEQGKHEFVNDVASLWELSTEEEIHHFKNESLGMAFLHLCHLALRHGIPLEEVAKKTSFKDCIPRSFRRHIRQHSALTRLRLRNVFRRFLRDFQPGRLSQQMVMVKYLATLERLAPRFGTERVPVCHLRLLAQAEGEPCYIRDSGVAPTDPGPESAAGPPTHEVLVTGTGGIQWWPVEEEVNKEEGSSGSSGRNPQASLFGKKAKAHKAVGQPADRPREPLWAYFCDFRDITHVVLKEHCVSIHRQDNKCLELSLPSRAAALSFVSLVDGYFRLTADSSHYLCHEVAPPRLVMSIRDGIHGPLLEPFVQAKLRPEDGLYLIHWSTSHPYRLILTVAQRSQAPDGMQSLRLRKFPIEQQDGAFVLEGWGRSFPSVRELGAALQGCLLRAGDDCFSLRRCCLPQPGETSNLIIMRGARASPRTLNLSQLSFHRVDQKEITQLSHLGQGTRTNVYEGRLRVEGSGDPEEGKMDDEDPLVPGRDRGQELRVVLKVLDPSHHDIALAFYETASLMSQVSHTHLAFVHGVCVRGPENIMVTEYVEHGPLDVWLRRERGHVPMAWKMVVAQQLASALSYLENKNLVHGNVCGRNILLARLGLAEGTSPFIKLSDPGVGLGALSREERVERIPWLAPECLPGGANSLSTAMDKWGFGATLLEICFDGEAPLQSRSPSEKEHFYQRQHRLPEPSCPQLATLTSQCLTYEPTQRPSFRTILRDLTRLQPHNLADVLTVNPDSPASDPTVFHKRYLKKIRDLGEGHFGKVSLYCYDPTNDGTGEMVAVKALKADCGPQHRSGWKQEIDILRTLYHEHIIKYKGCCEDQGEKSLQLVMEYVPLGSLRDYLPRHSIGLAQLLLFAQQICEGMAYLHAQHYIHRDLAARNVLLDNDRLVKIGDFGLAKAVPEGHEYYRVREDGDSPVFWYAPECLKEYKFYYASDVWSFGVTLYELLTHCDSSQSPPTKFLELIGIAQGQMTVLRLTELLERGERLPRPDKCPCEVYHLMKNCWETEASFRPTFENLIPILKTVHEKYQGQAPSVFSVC
method.description: TYK2 enzyme inhibition test (LANCE method)
Type: biochemical
measurement.setup: 1 μM test compound; read-out: TYK2 enzyme inhibitory activity (%, 1 μM)
parameter.measured: inhibition at 1 µM (%)
Numbers only; they are read as %.

[
  {
    "compound": "CC(C)[C@H](C)n1cc(-c2cc(N3CCS(=O)(=O)CC3)n(C)n2)c2[nH]nc(N)c2c1=O [Example 12]",
    "parameter.measured": "inhibition at 1 µM",
    "readout.number": 100
  }
]

Noted for COC[C@@H]1CCCN1c1cc(-c2cn([C@@H](C)C(C)C)c(=O)c3c(N)n[nH]c23)nn1C [Example 26] : its inhibition at 1 µM reads 98

Noted for CC(C)[C@H](C)n1cc(-c2cc(N3CCC[C@@H]3CO)n(C)n2)c2[nH]nc(N)c2c1=O [Example 22] : its inhibition at 1 µM reads 99

Noted for Cn1nc(-c2cn(C(C3CC3)C3CC3)c(=O)c3c(N)n[nH]c23)cc1N1CCC(F)(F)C1 [Example 170] : its inhibition at 1 µM reads 98

Noted for CC(C)C(C(N)=O)n1cc(-c2cc(N3CCOCC3)n(C)n2)c2[nH]nc(N)c2c1=O (stereo not drawn) [Example 85] : its inhibition at 1 µM reads 89

Noted for CC(C)C(C1CC1)n1cc(-c2cc(N3CCOCC3)n(C)n2)c2[nH]nc(N)c2c1=O (stereo not drawn) [Example 115] : its inhibition at 1 µM reads 100

Noted for CC(C)[C@H](C)n1cc(-c2cc(N3CCN(S(=O)(=O)C4CC4)CC3)n(C)n2)c2[nH]nc(N)c2c1=O [Example 107] : its inhibition at 1 µM reads 100

Noted for CC(C)[C@H](C)n1cc(-c2cc(N3CCC4(CC3)COC4)n(C)n2)c2[nH]nc(N)c2c1=O [Example 34] : its inhibition at 1 µM reads 100

Noted for Cn1nc(-c2cn(C(C3CC3)C3CC3)c(=O)c3c(N)n[nH]c23)cc1N1CCN2CCC[C@@H]2C1 [Example 163] : its inhibition at 1 µM reads 101

Noted for CC(n1cc(-c2cc(N3CCOCC3)n(C)n2)c2[nH]nc(N)c2c1=O)C(C)(C)O (stereo not drawn) [Example 99] : its inhibition at 1 µM reads 99

Noted for CC(C)N1CCN(c2cc(-c3cn([C@@H](C)C4CC4)c(=O)c4c(N)n[nH]c34)nn2C)CC1=O [Example 92] : its inhibition at 1 µM reads 99

Noted for CC(C)[C@H](C)n1cc(-c2cc(N3CCC(F)(F)CC3)n(C)n2)c2[nH]nc(N)c2c1=O [Example 16] : its inhibition at 1 µM reads 100

Noted for COC1(c2cc(-c3cn(-c4c(F)cccc4F)c(=O)c4c(N)n[nH]c34)nn2C)CCS(=O)(=O)CC1 [Example 129] : its inhibition at 1 µM reads 100

Noted for CN(C)[C@@H]1CCN(c2cc(-c3cn(C(C4CC4)C4CC4)c(=O)c4c(N)n[nH]c34)nn2C)C1 [Example 156] : its inhibition at 1 µM reads 100

Noted for Cn1nc(-c2cn(C(C3CC3)C3CC3)c(=O)c3c(N)n[nH]c23)cc1N1C2CCC1COC2 [Example 151] : its inhibition at 1 µM reads 102

Noted for Cn1nc(-c2cn(C(C3CC3)C3CC3)c(=O)c3c(N)n[nH]c23)cc1N1CCC[C@H]1CO [Example 168] : its inhibition at 1 µM reads 101

Noted for COC1CCN(c2cc(-c3cn([C@@H](C)C(C)C)c(=O)c4c(N)n[nH]c34)nn2C)CC1 [Example 14] : its inhibition at 1 µM reads 99

* * *

target.entity: JAK2 (Homo sapiens, UniProt O60674)
Construct: purchased Invitrogen
Sequence (O60674 whole entry): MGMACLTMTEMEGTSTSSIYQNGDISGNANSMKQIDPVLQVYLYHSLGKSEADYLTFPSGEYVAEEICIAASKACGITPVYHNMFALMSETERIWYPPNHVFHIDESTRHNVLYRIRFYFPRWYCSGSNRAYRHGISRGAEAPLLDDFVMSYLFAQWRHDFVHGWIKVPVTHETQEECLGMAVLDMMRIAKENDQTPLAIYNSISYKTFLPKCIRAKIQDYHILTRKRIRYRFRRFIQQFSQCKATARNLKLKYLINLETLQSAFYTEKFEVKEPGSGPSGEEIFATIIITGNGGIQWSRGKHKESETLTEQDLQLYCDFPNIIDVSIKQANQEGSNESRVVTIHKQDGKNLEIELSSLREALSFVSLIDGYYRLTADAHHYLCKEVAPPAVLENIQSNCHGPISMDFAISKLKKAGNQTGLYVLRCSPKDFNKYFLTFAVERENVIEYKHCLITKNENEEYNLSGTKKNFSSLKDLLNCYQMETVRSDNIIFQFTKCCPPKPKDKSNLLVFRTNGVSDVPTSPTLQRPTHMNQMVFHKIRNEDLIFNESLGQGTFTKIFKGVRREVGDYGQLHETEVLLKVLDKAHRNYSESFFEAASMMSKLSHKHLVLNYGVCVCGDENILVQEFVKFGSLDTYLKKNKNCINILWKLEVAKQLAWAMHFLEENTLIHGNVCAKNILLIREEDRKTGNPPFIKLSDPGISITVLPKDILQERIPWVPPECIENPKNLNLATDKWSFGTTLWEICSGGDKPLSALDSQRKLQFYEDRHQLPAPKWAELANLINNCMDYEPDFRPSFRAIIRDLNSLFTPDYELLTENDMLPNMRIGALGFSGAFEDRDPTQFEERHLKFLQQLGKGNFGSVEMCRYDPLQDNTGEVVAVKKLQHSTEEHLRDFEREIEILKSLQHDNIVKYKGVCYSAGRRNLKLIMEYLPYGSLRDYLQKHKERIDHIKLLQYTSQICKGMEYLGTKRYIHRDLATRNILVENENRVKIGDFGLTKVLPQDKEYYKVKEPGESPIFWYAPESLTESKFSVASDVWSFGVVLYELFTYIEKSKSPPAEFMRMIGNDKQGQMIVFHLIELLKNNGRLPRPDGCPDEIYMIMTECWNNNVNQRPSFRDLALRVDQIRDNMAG
method.description: JAK2 enzyme inhibition test (LANCE method)
Format: biochemical
measurement.setup: 1 μM test compound; read-out: JAK2 enzyme inhibitory activity (%, 1 μM)
Listing: inhibition at 1 µM of selected compounds
Numbers only; they are read as %.

Before answering, review these 3 worked examples.
[
  {
    "compound": "Cn1nc(-c2cn(-c3c(F)cccc3F)c(=O)c3c(N)n[nH]c23)cc1N1CCC(C)(C#N)CC1",
    "inhibition at 1 µM (%)": 99
  },
  {
    "compound": "Cn1nc(-c2cn(C3CCCC3(C)C)c(=O)c3c(N)n[nH]c23)cc1N1CCOCC1 (racemic) [Example 73]",
    "inhibition at 1 µM (%)": 99
  },
  {
    "compound": "Cn1nc(-c2cn(-c3c(F)cccc3F)c(=O)c3c(N)n[nH]c23)cc1N1CCOCC1",
    "inhibition at 1 µM (%)": 98
  }
]

Would you kindly look at the next entry?
Record COC[C@@H]1CCCN1c1cc(-c2cn([C@@H](C)C(C)C)c(=O)c3c(N)n[nH]c23)nn1C / JAK2 (Homo sapiens, UniProt O60674), inhibition at 1 µM recorded as 96

* * *

target.entity: JAK2 (Homo sapiens)
Construct: purchased Invitrogen
method.description: JAK2 enzyme inhibition test (LANCE method)
Type: biochemical
measurement.setup: 1 μM test compound; read-out: JAK2 enzyme inhibitory activity (%, 1 μM)
Listing: inhibition at 1 µM of selected compounds
Numbers only; they are read as %.

Before answering, review these 4 worked examples.
[
  {
    "compound": "CN(C)[C@H]1CCN(c2cc(-c3cn(-c4c(F)cccc4F)c(=O)c4c(N)n[nH]c34)nn2C)C1",
    "inhibition at 1 µM (%)": 99
  },
  {
    "compound": "CC(C)[C@H](C)n1cc(-c2cc(N3CCN(S(=O)(=O)C(C)C)CC3)n(C)n2)c2[nH]nc(N)c2c1=O",
    "inhibition at 1 µM (%)": 98
  },
  {
    "compound": "COC1(c2cc(-c3cn(-c4c(F)cccc4F)c(=O)c4c(N)n[nH]c34)nn2C)CN(S(=O)(=O)C(C)C)C1",
    "inhibition at 1 µM (%)": 98
  },
  {
    "compound": "CC(C)[C@H](C)n1cc(-c2cc(N3CCOCC3)n(C)n2)c2[nH]nc(N)c2c1=O",
    "inhibition at 1 µM (%)": 99
  }
]

Noted for CC(n1cc(-c2cc(N3CCOCC3)n(C)n2)c2[nH]nc(N)c2c1=O)C1(C)CC1 (stereo not drawn) : its inhibition at 1 µM reads 100

Noted for CC(C)[C@H](C)n1cc(-c2cc(N3CCC(F)(F)CC3)n(C)n2)c2[nH]nc(N)c2c1=O : its inhibition at 1 µM reads 99

Noted for CC(C)[C@H](C)n1cc(-c2cc(N3CCC[C@@H]3CO)n(C)n2)c2[nH]nc(N)c2c1=O : its inhibition at 1 µM reads 98

* * *

target.entity: JAK3 (Homo sapiens, UniProt P52333)
Construct: purchased Invitrogen
Sequence (P52333 1-1124): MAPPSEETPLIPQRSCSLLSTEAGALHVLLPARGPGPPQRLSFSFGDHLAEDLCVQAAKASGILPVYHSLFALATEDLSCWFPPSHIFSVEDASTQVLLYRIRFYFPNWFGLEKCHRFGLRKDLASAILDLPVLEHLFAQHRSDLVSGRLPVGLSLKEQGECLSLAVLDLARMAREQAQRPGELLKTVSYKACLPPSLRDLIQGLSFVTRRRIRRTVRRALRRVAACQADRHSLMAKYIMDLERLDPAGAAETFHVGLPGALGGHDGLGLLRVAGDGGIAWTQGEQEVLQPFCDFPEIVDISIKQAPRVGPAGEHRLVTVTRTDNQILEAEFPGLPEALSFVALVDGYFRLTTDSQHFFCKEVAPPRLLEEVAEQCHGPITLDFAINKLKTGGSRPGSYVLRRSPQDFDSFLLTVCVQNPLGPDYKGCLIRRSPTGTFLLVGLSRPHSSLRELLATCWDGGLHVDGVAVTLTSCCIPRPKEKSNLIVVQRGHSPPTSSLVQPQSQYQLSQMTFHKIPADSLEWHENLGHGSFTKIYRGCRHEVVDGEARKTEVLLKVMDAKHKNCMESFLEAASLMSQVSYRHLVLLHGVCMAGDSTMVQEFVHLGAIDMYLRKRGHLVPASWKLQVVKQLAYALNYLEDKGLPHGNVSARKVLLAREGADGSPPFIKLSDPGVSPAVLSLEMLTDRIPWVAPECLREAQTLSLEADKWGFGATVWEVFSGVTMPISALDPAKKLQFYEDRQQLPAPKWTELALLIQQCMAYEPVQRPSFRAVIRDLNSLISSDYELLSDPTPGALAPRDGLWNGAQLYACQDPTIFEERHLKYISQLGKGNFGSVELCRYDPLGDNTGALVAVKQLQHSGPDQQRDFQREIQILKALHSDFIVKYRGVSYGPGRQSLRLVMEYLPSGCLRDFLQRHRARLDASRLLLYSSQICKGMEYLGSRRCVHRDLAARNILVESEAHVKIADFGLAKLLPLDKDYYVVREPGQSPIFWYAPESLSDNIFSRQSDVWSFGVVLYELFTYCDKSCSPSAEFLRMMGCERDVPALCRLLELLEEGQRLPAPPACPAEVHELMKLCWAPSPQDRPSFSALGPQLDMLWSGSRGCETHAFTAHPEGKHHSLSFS
method.description: JAK3 enzyme inhibition test (LANCE method)
Assay type: biochemical
measurement.setup: 1 μM test compound; read-out: JAK3 enzyme inhibitory activity (%, 1 μM)
parameter.measured: inhibition at 1 µM (%)
Numbers only; they are read as %.

Before answering, review these 3 worked examples.
[
  {
    "given.smiles": "CN1CCCN(c2cc(-c3cn(C(C4CC4)C4CC4)c(=O)c4c(N)n[nH]c34)nn2C)CC1",
    "units": "%",
    "inhibition at 1 µM": 101
  },
  {
    "given.smiles": "Cn1nc(-c2cn(-c3c(F)cccc3F)c(=O)c3c(N)n[nH]c23)cc1N1CCOCC1",
    "units": "%",
    "inhibition at 1 µM": 99
  },
  {
    "given.smiles": "CC(C)[C@@H](C)n1cc(-c2cc(C(C)(C)O)n(C)n2)c2[nH]nc(N)c2c1=O",
    "units": "%",
    "inhibition at 1 µM": 86
  }
]

Noted for CO[C@@H]1CCN(c2cc(-c3cn(C(C4CC4)C4CC4)c(=O)c4c(N)n[nH]c34)nn2C)C1 : its inhibition at 1 µM reads 100
